Entries annotated with measured phosphorylation enrichment
# MEASUREMENT TARGET: Fes (UniProt P07332)
# Sequence (P07332 whole entry, looked up): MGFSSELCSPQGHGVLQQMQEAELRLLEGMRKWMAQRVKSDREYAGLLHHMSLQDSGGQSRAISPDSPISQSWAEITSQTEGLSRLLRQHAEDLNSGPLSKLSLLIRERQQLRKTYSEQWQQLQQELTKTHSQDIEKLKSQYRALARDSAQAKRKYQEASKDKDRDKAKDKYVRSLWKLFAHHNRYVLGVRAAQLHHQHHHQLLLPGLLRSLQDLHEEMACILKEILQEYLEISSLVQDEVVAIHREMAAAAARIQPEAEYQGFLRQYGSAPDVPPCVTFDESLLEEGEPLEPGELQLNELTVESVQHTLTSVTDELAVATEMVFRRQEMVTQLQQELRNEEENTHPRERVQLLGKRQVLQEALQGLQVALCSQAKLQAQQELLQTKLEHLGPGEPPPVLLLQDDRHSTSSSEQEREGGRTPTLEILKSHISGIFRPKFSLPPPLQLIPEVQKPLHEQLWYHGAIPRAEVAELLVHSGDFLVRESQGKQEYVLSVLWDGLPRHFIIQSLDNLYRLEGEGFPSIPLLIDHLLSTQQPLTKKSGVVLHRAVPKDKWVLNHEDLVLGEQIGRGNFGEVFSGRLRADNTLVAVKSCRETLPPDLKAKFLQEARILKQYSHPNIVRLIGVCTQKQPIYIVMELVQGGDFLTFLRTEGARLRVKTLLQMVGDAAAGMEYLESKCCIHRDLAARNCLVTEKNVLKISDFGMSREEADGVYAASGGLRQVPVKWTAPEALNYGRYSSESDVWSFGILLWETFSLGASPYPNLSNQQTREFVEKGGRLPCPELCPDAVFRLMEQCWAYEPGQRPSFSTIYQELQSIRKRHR
# ASSAY: phosphorylation enrichment, bacterial display (enrichment ratio); higher = better substrate or ligand; peptides without Tyr show the background;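 note: 11-residue human phosphosite peptides and single-mutation variants displayed on the E. coli surface, counted by deep sequencing, each peptide's frequency after selection divided by its frequency in the unselected input library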;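 note: frequency after pTyr selection over input frequency; kinase dosed for 20-30% of maximal phosphorylation in three min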
MEASUREMENT KIND: phosphorylation enrichment

>>> df
                          sequence_data    measurement_target            measurement_kind  numeric_readout
0         REVVNYVQKRS [RMI1_Y450_N455S]  Fes (UniProt P07332)  phosphorylation enrichment             1.01
1  PSRKDYETFQS [CTNND2_Y1154_P1159S_YF]  Fes (UniProt P07332)  phosphorylation enrichment            0.977
2            RAKLFYQEVPA [METTL11B_Y76]  Fes (UniProt P07332)  phosphorylation enrichment             1.02
